# Test system: Renilla luciferase RNA
# test.name: Barcoded aptazyme variant library screen: un-cleaved Renilla luciferase RNA by barcode read counts, HEK293-T cells
# Format: cell-based
# particulars: un-cleaved Renilla luciferase RNA by barcode read counts; with 1 mM theophylline (ON) over without theophylline (OFF); HEK293-T cells; triplicate
The entries below come with measured Fold change in RNA expression between the ON state and the OFF state values attached.
Provide a numeric answer; units are not to be included.

# annotated cases, reported Fold change in RNA expression between the ON state and the OFF state shown
RA337 (nucleic acid, expressed or natural sequence) DNA: GCGCGTAGAATACCAGCATCGTCTTGATGCCCTTGGAAGTCTCCTGGATTCGCGGAAACGCGTACATCCAGCTGACGAGTCCCAAATAGGACGAAACGCGC
0.9
RA333 (nucleic acid, expressed or natural sequence) DNA: GCGCGTCCTGGATTCGCGGAAACGCGTACATCCAGCTGACGAGTCCCAAAGAATACCAGCATCGTCTTGATGCCCTTGGAAGTCTATAGGACGAAACGCGC
0.9
RA370 (nucleic acid, expressed or natural sequence) DNA: GCGCGTCCTGGATTCGCGGAAACGCGTACATCCAGCTGACGAGTCCCAAATAGGACGAAACGGGAATACCAGCATCGTCTTGATGCCCTTGGAAGTCCCGC
0.8

Consider the molecule RA327 (nucleic acid, expressed or natural sequence) DNA: GCGCGTCCTGGATTCGCGGAAACGCGTAGTGATACCAGCATCGTCTTGATGCCCTTGGCAGCACTACATCCAGCTGACGAGTCCCAAATAGGACGAAACGCGC . State its measured Fold change in RNA expression between the ON state and the OFF state.
0.9
